ASSAYED_SYSTEM: Solute carrier family 12 member 5 (Homo sapiens, UniProt Q9H2X9)
Sequence (Q9H2X9 whole entry): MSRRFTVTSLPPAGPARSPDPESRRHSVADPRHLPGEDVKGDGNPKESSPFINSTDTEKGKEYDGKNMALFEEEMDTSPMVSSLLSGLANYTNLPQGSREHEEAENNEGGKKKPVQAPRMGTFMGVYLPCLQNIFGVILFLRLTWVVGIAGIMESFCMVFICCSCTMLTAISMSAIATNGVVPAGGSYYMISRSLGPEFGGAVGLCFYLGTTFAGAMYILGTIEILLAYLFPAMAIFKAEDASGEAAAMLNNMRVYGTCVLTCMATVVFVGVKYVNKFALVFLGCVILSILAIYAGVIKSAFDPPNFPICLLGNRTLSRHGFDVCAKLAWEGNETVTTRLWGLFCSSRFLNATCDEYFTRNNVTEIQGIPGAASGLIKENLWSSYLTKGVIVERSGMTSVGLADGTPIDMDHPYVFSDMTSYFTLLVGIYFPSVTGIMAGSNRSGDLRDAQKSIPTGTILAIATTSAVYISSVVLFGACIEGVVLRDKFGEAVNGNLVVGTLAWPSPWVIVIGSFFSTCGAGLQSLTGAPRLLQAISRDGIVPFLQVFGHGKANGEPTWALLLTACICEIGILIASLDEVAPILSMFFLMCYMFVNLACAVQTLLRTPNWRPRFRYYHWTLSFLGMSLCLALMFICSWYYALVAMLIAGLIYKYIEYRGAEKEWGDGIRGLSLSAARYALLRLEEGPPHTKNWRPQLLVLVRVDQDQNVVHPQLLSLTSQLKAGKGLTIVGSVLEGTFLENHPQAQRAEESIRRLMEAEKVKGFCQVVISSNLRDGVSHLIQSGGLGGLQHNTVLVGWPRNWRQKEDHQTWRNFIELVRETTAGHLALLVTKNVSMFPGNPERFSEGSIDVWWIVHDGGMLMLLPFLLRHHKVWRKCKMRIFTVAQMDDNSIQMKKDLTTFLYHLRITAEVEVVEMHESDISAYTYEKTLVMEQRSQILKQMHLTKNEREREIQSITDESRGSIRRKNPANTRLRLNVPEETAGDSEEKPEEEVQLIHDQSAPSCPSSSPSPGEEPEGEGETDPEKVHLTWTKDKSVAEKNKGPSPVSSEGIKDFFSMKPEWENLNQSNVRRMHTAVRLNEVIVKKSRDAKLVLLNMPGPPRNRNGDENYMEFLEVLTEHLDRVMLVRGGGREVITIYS
EXPERIMENTAL_DETAILS: concentration-response of KCC2 transport modulators – cell-based, HEK293 KCC2, FluoZin-2 fluorescence, dose response (AID 1736)
MEASUREMENT_KIND: log10(EC50) (log10 of the value in µM)
Transform log10 | Measure EC50 | Unit µM

// fetch log10(EC50) given entry O=C(CC(C(=O)N1CCc2ccccc21)n1ccnc1)N1CCc2ccccc2C1 (stereo unspecified)
2.05

Query log10(EC50) for `O=C(CSc1nnc(Cc2ccccc2)o1)c1ccc(F)cc1`
0.46

Give recorded log10(EC50). `Cc1cccc(NC(=S)NN=C2C(=O)N(CN3CCOCC3)c3ccccc32)c1C`
0.78

Return the recorded log10(EC50) value; entry: `COc1cc(C=NN(C)c2ccccc2)ccc1O`
0.44

Please give the documented log10(EC50) of O=C(NCC1CCCO1)C(c1cccs1)N(C(=O)c1ccc(-c2ccccc2)[nH]1)C1CCCC1 (stereo unspecified)
0.89

Quick one: give measured log10(EC50) for `Cc1ccc(-c2csc(NC(=O)CCNC(=O)c3ccccc3Cl)n2)cc1`
0.31

Give log10(EC50) for the following molecule: `N#Cc1nc(Cc2cccc3ccccc23)oc1N1CCOCC1`
0.34

Please indicate log10(EC50) recorded for `COc1ccc(-c2cc(CNC(=O)CN(C)Cc3ccccc3)on2)cc1`
1.39

Return log10(EC50) for the following molecule: `O=C(c1cc(COc2c(F)cccc2F)on1)N1CCC(c2ccncc2)CC1`
1.25

Please supply the value of reported log10(EC50) for the item `O=C(O)CC/C(=C\c1ccccc1[N+](=O)[O-])c1nc2ccccc2s1`
2.54

Identify the reported log10(EC50) for the following entry. O=C(CSc1ccc(-c2cccs2)nn1)Nc1ccccc1F [MLS000621184]
0.23

Return reported log10(EC50). Input molecule: `CCOC(=O)c1cc2c(ccn2C)n1CC(=O)N1CCC(Cc2ccccc2)CC1`
1.03

Read the entry `COc1ccc(NC(=S)NC(N)=Nc2nc(C)c3ccccc3n2)cc1` and write its reported log10(EC50).
0.45

Give log10(EC50) for the following molecule: `Cc1cc(C)c(C#N)c(N2CCN(Cc3ccccc3)CC2)n1`
0.91

Give recorded log10(EC50). `O=C(NC(=S)NNC(=O)c1cnccn1)c1ccc(Cl)cc1`
0.99

Read the entry CC1Cc2ccccc2N1C(=O)c1ccc(N2CCCCC2)c([N+](=O)[O-])c1 (stereo unspecified) and write its reported log10(EC50).
-0.20

Quickly give me recorded log10(EC50) for `COc1ccc(S(=O)(=O)N2CCC(C(=O)N3CCc4ccccc4C3)CC2)cc1C`
0.70

Tell me its log10(EC50) given O=C(NNc1nc(-c2ccccc2)cs1)c1cccs1 [MLS000858987] as the entry.
-0.72

Please look at this molecule and report its log10(EC50): `NC1=NC[C@@H](Cc2ccc(O)cc2)N1CCc1cc(C(F)(F)F)cc(C(F)(F)F)c1`
1.58

Entry `Cc1ccc(/C=C2/Sc3ccccc3N(CC(=O)NCCCOC(C)C)C2=O)cc1` needs its log10(EC50) filled in; supply it.
1.32

Using known records, supply log10(EC50) for Cc1nonc1NC(=O)CSc1ccc(-c2ccccc2)nn1 [MLS000074514]
0.19

Answer with the recorded log10(EC50) for the molecule listed here: `COCCN1C(=O)/C(=C/c2ccc(OCc3ccc(C(=O)O)cc3)c(OC)c2)S/C1=N/c1ccccc1`
1.44

Hello, please tell me recorded log10(EC50) for this one: `CC(C)N1C(=O)S/C(=C/c2ccccc2OCc2ccc(C(=O)O)cc2)C1=O`
0.34

Complete the entry with log10(EC50) for O=C(NNc1nc(-c2ccccc2)cs1)c1ccccc1 [MLS000547345]
-1.97

Please look at this molecule and report its log10(EC50): CC1CCCCN1C(=O)CSc1nnc(-c2c[nH]c3ccccc23)o1 (stereo unspecified)
1.18

State its log10(EC50) for this molecule: `O=C(/C=C/c1ccco1)N1CCC(Cc2ccccc2)CC1`
0.99

Provide log10(EC50) value for the following molecule: CCc1cc(C(=O)N2CCCC(CNC(=O)c3ccc(-c4ccccc4)cc3)C2)no1 (stereo unspecified) [MLS000731765]
0.48

Find the measured log10(EC50) of `CC(C)c1onc(C(=O)N2CCN(Cc3ccccc3)CC2)c1[N+](=O)[O-]` and report it.
-0.41

Entry O=C(c1ccc(N2CCCCCC2)c([N+](=O)[O-])c1)N1CCc2ccccc21 [1-(4-azepan-1-yl-3-nitrobenzoyl)indoline] needs its log10(EC50) filled in; supply it.
0.88

Please supply the value of reported log10(EC50) for the item `O=C(CSc1ccc(-c2ccccc2)nn1)c1ccccc1`
0.03

Identify measured log10(EC50) associated with Cc1cccc(-c2nc(C[S+]([O-])CC(=O)N3CCc4ccccc4C3)c(C)o2)c1 (stereo unspecified)
1.14

Consider the molecule CC(C)(C)NC(=O)C(c1cccs1)N(CC1CCCO1)C(=O)c1ccc(-c2ccccc2)[nH]1 (stereo unspecified) and give its recorded log10(EC50).
0.36

Please give the documented log10(EC50) of `COc1ccc(S(=O)(=O)N(C)CC(=O)N2CCN(Cc3ccccc3)CC2)cc1C`
0.35

Quick one: give measured log10(EC50) for `Cc1noc(C)c1S(=O)(=O)N1CCC(C(=O)N2CCN(c3ccc(F)cc3)CC2)CC1`
1.36

Entry CC1Cc2ccccc2N1C(=O)c1ccc(N2CCCC2)c([N+](=O)[O-])c1 (stereo unspecified) needs its log10(EC50) filled in; supply it.
-0.19

Identify measured log10(EC50) associated with `COC(=O)[C@@H](NC(=O)O[C@@H]1C(=O)c2ccc(OC)cc2O[C@H]1c1cccc(C(F)(F)F)c1)C(C)C`
0.27

# return recorded log10(EC50) for entry `Fc1ccc(CSc2nncn2NC/C=C/c2ccccc2)cc1`
0.65

Please give the documented log10(EC50) of O=C(C=Cc1ccccc1)CC(=O)c1ccccc1O [MLS000627068]
1.00

Write down log10(EC50) measured for item `COc1ccccc1N1CCN(C(=S)NC(=O)/C=C/c2ccccc2)CC1`
1.08

# return recorded log10(EC50) for input `O=C(c1ccc(S(=O)(=O)c2cccc(Cl)c2)c([N+](=O)[O-])c1)N1CCN(c2ccccn2)CC1`
0.41

Dear colleague, please send me the reported log10(EC50) for `Sc1nnc(CCc2ccc(Cl)cc2)o1` when you can.
0.20

====

ASSAYED_SYSTEM: Solute carrier family 12 member 5 (Homo sapiens, UniProt Q9H2X9)
EXPERIMENTAL_DETAILS: concentration-response of KCC2 transport modulators – cell-based, HEK293 KCC2, FluoZin-2 fluorescence, dose response (AID 1736)
Each entry belongs to exactly one class, chosen by where its EC50 falls: range A = under 3 µM, range B = from 3 µM up to 9 µM, range C = 9 µM and over

Hi there! Could you help me figure out the category for `Cc1ccccc1OCC(=O)NNC(=O)CCN1C(=O)c2ccccc2C1=O` please?
range C

// bin(item) where item = `CC[C@H](CO)Nc1nc(Nc2cccc(Cl)c2)c2ncn(C(C)C)c2n1`
range C

Category of `O=C(Nc1cccnc1)c1ccc(COc2ccccc2Br)o1` , please.
range A

Record `C=CCNc1oc(Cc2cccc3ccccc23)nc1C#N` — which class?
range B

// bin(item) where item = `O=C(O)CCc1cc(I)c(Oc2ccc(O)c(I)c2)c(I)c1`
range B

Which band does `O=C(O)c1cc(-c2ccc(F)cc2F)ccc1O` fall in?
range B

Class label required: `Cc1n[nH]c(O)c1C(c1ccc(-c2ccc(F)cc2)o1)c1c(C)n[nH]c1O`
range C

For the record Cc1oc(-c2ccccc2)nc1C[S+]([O-])CC(=O)N1CCc2ccccc2C1 (stereo unspecified) , report the class its EC50 corresponds to.
range B

Using the reported EC50, which band applies to `Cc1ccc2[nH]c3c(N4CCN(Cc5ccccc5)CC4)ncnc3c2c1` ?
range B

Form: Item = Cc1nn(-c2ccc(F)cc2)c(C)c1NS(=O)(=O)c1ccc2ccccc2c1 [MLS000565745] ; Class = ?
range A

Kindly identify the class of CC(C)NC(=S)NNC1=c2cc(C(C)C)ccc2=NC1=O [SMR000242097] .
range B

Please classify: `O=C(NCCOc1ccccc1F)c1ccccc1SCc1ccc(F)cc1`
range A

Category of `O=C(OCC(=O)N1CCN(C(=O)c2ccco2)CC1)c1sc2ccccc2c1Cl` , please.
range A

Could you tell me which band `Cc1noc(/C=C/c2ccco2)c1S(=O)(=O)N1CCC(C(=O)N2CCc3ccccc3C2)CC1` belongs to?
range B

Bin? CC1(CCc2ccccc2)NC(=O)N(Cc2nnc(-c3ccccc3Br)o2)C1=O (stereo unspecified)
range B

Which band does CC(=NNC(=S)Nc1c(C)cccc1C)c1cc2ccccc2o1 [SMR000260555] fall in?
range A

Hey, which category is O=C(C1CCCN(S(=O)(=O)c2cccc3nonc23)C1)N1CCC(Cc2ccccc2)CC1 (stereo unspecified) in, do you know?
range C

Determine which band this molecule sits in: `Cc1nn(-c2ccc(F)cc2)c(C)c1NS(=O)(=O)c1ccc(Cl)cc1`
range C

Could you place CCn1c(SCC(=O)Nc2ccc(Cl)cc2)nc2nc3c(cc2c1=O)CCCC3 [MLS000589154] in its proper category? Many thanks.
range C

Band of `O=C(CCSCCc1ccccn1)Nc1ccc(Cc2ccncc2)cc1` ?
range C

Note: place this molecule into its band. Item: `CCOC(=O)c1c(C)[nH]c(N=Nc2ccccc2)c1C`
range B
